# assay.details: qHTS Screen of the MIPE 4.0 Collection Against Ewings Sarcoma (RDES) (AID 1259252); further: nearly all actives have a fitted effect of over 35% in size
# assay.context: RD-ES Ewing sarcoma viability, CellTiter-Glo, 48 h; series mostly up to 45.8 µM
Inconclusive results are not listed. The source made the active and inactive calls. The call rests on the fitted dose curve; in most records, active means well fitted inhibition curve with a large enough effect; inconclusive means small, poorly fitted or top-dose-only effect; inactive means no such curve, though single readings can be large or run the other way.
Outcomes: label 1 = active, label 0 = inactive

>  <molecule>
COC(=O)[C@@H](N)CCCN=C(N)N[N+](=O)[O-]

>  <label.value>
label 0

$$$$
>  <molecule>
CCOP(=O)(OCC)C(C)NC(=O)N(CCCl)N=O (stereo not given)

>  <label.value>
label 0

$$$$
>  <molecule>
CCCCCC[C@H]1C(=O)O[C@H](C)[C@H](NC(=O)c2cccc(NC=O)c2O)C(=O)O[C@@H](C)[C@@H]1OC(=O)CC(C)C

>  <label.value>
label 1

$$$$
>  <molecule>
COc1ccc2c(c1)[C@]13CCCCC1C(C2)N(C)CC3 (stereo not given in full)

>  <label.value>
label 0

$$$$
>  <molecule>
CCN1CCN(C(=O)Cc2ccc(Nc3ncc(F)c(Nc4ccc(C(=O)Nc5ccccc5Cl)cc4)n3)cc2)CC1

>  <label.value>
label 1

$$$$
>  <molecule>
C[C@H]([C@H](O)CCC(C)(C)O)[C@H]1CC[C@@]2(O)C3=CC(=O)[C@@H]4C[C@@H](O)[C@@H](O)C[C@]4(C)[C@@H]3CC[C@]12C

>  <label.value>
label 0

$$$$
>  <molecule>
O=c1[nH]c2ccc(Cl)cc2c(N[C@@H]2CN3CCC2CC3)c1-c1nc2ccccc2[nH]1

>  <label.value>
label 1

$$$$
>  <molecule>
Cc1nc(-c2ccc(-c3ccc(C(=O)N4CCc5cc6c(cc54)C4(CCN(C)CC4)CO6)cc3)c(C)c2)no1

>  <label.value>
label 0

$$$$
>  <molecule>
CC=C(C)C(=O)O[C@H]1C(C)=C2[C@@H]3OC(=O)[C@@](C)(O)[C@@]3(O)[C@@H](OC(=O)CCC)C[C@](C)(OC(C)=O)[C@@H]2[C@@H]1OC(=O)CCCCCCC

>  <label.value>
label 1

$$$$
>  <molecule>
C=CCON=C(C[C@H]1O[C@@H]2O[C@]3(C)CC[C@@H]4[C@H](C)CC[C@@H]([C@H]1C)[C@@]24OO3)[C@H]1O[C@@H]2O[C@]3(C)CC[C@H]4[C@H](C)CC[C@@H]([C@@H]1C)[C@@]24OO3

>  <label.value>
label 1

$$$$
>  <molecule>
O=C(O)CNC(=O)c1c(O)c2ccccc2n(Cc2ccccc2)c1=O

>  <label.value>
label 1

$$$$
>  <molecule>
Cc1c(C(=O)Nc2cccc(C(F)(F)F)c2)cc(-c2ccccc2)n1CCCN1CCOCC1

>  <label.value>
label 1

$$$$
>  <molecule>
C[C@@]12OC(=O)[C@]1([C@@H](O)[C@@H]1C=CCCC1)NC(=O)[C@H]2CCCl

>  <label.value>
label 1

$$$$
>  <molecule>
C=C[C@@H]1CN2CCC1C[C@H]2[C@H](O)c1ccnc2ccccc12 (stereo not given in full)

>  <label.value>
label 1

$$$$
>  <molecule>
CC[C@@]1(O)C(=O)OCc2c1cc1n(c2=O)Cc2cc3ccccc3nc2-1

>  <label.value>
label 1

$$$$
>  <molecule>
CC(C)(O)C(=O)Nc1ccc([N+](=O)[O-])c(C(F)(F)F)c1

>  <label.value>
label 1

$$$$
>  <molecule>
CC(C)[C@]12O[C@@H]1[C@@H]1O[C@]13[C@]1(O[C@H]1C[C@@H]1C4=C(CC[C@@]13C)C(=O)OC4)[C@H]2O

>  <label.value>
label 0

$$$$
>  <molecule>
CN(C)NC(=O)CCC(=O)O

>  <label.value>
label 1

$$$$
>  <molecule>
CC[C@@H](C(N)=O)N1CCCC1=O

>  <label.value>
label 0

$$$$
>  <molecule>
CC(C)N(CCNC(=O)CN1CCCC1=O)C(C)C

>  <label.value>
label 0

$$$$
>  <molecule>
CN[C@@H]1Cc2cccc3[nH]c(=O)n(c23)C1

>  <label.value>
label 0

$$$$
>  <molecule>
CCN(CC)C(=O)c1ccc(C2=CC3(CCNCC3)Oc3cccc(O)c32)cc1

>  <label.value>
label 0

$$$$
>  <molecule>
C[C@]12CC[C@H]3[C@@H](CCC4=CC(=O)CC[C@@]43C)[C@H]1CC[C@H]2OC(=O)CCC1CCCC1

>  <label.value>
label 0

$$$$
>  <molecule>
C[C@]12CC[C@@H]3[C@@H](CCC4=CC(=O)CC[C@@H]43)[C@@H]1CC[C@@H]2OC(=O)CCc1ccccc1

>  <label.value>
label 0

$$$$
>  <molecule>
CC=C(C)C(=O)N[C@@H](c1ccccc1)[C@@H](O)C(=O)O[C@H]1C[C@@]2(O)[C@@H](OC(=O)c3ccccc3)[C@@H]3[C@]4(OC(C)=O)CO[C@@H]4C[C@H](O)[C@@]3(C)C(=O)[C@H](OC(C)=O)C(=C1C)C2(C)C

>  <label.value>
label 0

$$$$
>  <molecule>
C[C@@H]1CC[C@@]2(OC1)O[C@H]1C[C@H]3[C@@H]4CC=C5C[C@@H](O[C@@H]6O[C@H](CO)[C@@H](O[C@@H]7O[C@@H](C)[C@H](O)[C@@H](O)[C@@H]7O)[C@H](O)[C@@H]6O[C@@H]6O[C@@H](C)[C@H](O)[C@@H](O)[C@@H]6O)CC[C@]5(C)[C@@H]4CC[C@]3(C)[C@@H]1[C@H]2C

>  <label.value>
label 1

$$$$
>  <molecule>
O=c1[nH]c2ccccc2n1C1CCN(Cc2ccc(-c3[nH]c4cc5ncnc5cc4nc3-c3ccccc3)cc2)CC1

>  <label.value>
label 1

$$$$
>  <molecule>
CC(=O)O[C@@]12CO[C@H]1C[C@H](O)[C@@]1(C)C(=O)[C@H](O)C3=C(C)[C@@H](O)C[C@@](O)([C@@H](OC(=O)c4ccccc4)[C@@H]21)C3(C)C

>  <label.value>
label 1

$$$$
>  <molecule>
O=C(Oc1ccc([N+](=O)[O-])cc1)N1CCN(Cc2cccc(Oc3ccccc3)c2)CC1

>  <label.value>
label 0

$$$$
>  <molecule>
Cc1[nH]nc2ccc(-c3cncc(OC[C@@H](N)Cc4c[nH]c5ccccc45)c3)cc12

>  <label.value>
label 1

$$$$
